Ref: patent US20240101576A1

molecular target: EGFR exon 20 ASV Ins V769_D770 (Ba/F3 cells) (Homo sapiens, UniProt P00533, INS769ASV); construct: expressed in transfected cells; host or cells: Ba/F3 (murine pro-B cells), retroviral transduction, puromycin selection, IL3-independent pool; assay: Inhibitor activity on EGFR-dependent cell growth (CellTiter-Glo, 72 h), Ba/F3 EGFR exon 20 ASV Ins; type: cell-based; conditions: read-out: BaF3 ASV IC50
Sequence (P00533 with tags, fused parts or gaps INS769ASV): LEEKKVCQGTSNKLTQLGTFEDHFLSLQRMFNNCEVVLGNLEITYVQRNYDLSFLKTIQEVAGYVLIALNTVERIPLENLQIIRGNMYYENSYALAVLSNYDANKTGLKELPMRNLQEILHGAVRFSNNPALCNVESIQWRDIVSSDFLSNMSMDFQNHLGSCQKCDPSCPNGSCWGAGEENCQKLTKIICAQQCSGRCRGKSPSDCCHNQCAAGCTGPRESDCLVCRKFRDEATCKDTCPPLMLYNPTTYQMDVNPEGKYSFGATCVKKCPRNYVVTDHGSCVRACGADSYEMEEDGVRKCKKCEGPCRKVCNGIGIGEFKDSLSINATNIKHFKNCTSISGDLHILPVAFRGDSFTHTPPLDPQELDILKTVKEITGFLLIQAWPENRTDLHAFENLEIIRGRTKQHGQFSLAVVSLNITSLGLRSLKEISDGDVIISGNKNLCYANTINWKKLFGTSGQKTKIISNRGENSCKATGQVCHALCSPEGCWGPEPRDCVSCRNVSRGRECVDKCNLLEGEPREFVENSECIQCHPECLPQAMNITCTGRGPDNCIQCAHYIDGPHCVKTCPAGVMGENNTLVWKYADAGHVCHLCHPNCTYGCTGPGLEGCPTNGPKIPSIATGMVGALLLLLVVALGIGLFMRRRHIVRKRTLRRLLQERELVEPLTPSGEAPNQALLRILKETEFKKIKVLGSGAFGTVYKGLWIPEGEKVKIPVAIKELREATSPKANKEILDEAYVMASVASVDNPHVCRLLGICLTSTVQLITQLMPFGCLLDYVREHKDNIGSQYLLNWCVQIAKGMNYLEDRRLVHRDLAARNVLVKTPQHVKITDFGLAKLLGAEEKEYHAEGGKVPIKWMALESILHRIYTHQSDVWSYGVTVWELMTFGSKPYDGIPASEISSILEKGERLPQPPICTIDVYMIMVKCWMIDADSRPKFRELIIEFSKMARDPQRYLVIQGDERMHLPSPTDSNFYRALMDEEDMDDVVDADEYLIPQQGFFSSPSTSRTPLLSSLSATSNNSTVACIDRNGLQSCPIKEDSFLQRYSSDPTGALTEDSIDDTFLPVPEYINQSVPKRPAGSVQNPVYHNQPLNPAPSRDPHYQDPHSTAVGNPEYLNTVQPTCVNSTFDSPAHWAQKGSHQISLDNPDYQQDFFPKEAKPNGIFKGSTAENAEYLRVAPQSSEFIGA
pIC50: −log10 of the molar value.
pIC50: recorded values

Entry COc1c(Cl)cc(F)cc1Nc1c(-c2ccnc(N)n2)[nH]c2c1C(=O)NCC2 , system EGFR exon 20 ASV Ins V769_D770 (Ba/F3 cells) (Homo sapiens, UniProt P00533, INS769ASV): what pIC50 was measured?
6.00 to 7.00

Lab note: need pIC50 for COc1c(Cl)cccc1Nc1c(-c2ccnc(NCCN(C)C)n2)[nH]c2c1C(=O)NCC2 on EGFR exon 20 ASV Ins V769_D770 (Ba/F3 cells) (Homo sapiens, UniProt P00533, INS769ASV), anyone have it?
< 6.00

// lookup pIC50 | system=EGFR exon 20 ASV Ins V769_D770 (Ba/F3 cells) (Homo sapiens, UniProt P00533, INS769ASV) | key= COc1c(Cl)cccc1Nc1c(-c2ccnc3c2OCC(=O)N3)[nH]c2c1C(=O)NCC2
6.00 to 7.00

Can you look up pIC50 on EGFR exon 20 ASV Ins V769_D770 (Ba/F3 cells) (Homo sapiens, UniProt P00533, INS769ASV) for COc1c(Cl)cccc1Nc1c(-c2ccnc3ccc(OC4CC(F)(F)C4)nc23)[nH]c2c1C(=O)NCC2 ?
> 7.00

What value of pIC50 on EGFR exon 20 ASV Ins V769_D770 (Ba/F3 cells) (Homo sapiens, UniProt P00533, INS769ASV) does COc1c(Cl)cccc1Nc1c(-c2ccncc2F)[nH]c2c1C(=O)NC[C@@H]2CCN1CCOCC1 have?
< 6.00
